Below, each of the molecules is paired with its reported GI50 value.
# System: PC-3
# Measurement Notes: In vitro cytotoxicity against prostate PC-3 human tumors following a 2 day exposure.
# Assay type: functional
# Test Context: PC-3, 48 h
Answer with a number only, understood to be in nM.

Worked cases, GI50 given:
INSERT INTO results (molecule, measured_attribute, meas_value) VALUES
  ('C[C@@H]1[C@@]2(CC[C@](C)(O)CO2)O[C@H]2C=C3[C@H]4CC[C@H]5Cc6nc7c(nc6C[C@]5(C)[C@H]4C[C@@H](O)[C@]3(C)[C@]21O)C[C@@H]1CC[C@H]2C3=C[C@@H]4O[C@]5(CC[C@@](C)(O)CO5)[C@@H](C)[C@]4(O)[C@@]3(C)[C@H](O)C[C@@H]2[C@@]1(C)C7', 'GI50', 91),
  ('C[C@@H]1C2(OC3C=C4C5CCC6Cc7nc8c(nc7C[C@]6(C)C5C[C@@H](O)[C@]4(C)C31O)CC1CCC3C4=CC5OC6(CCC(C)(C)O6)[C@@H](C)C5[C@@]4(C)[C@H](O)CC3[C@@]1(C)C8)O[C@](C)(CO)C[C@H]2O (stereo partly drawn)', 'GI50', 1.8);

Ask: Read the entry C[C@H]1C2C(C[C@H]3C4CCC5Cc6nc7c(nc6C[C@]5(C)C4C[C@@H](O)[C@]23C)CC2CCC3C4=CC5O[C@]6(CC[C@](C)(O)CO6)[C@@H](C)C5(O)[C@@]4(C)[C@H](O)CC3[C@@]2(C)C7)OC12CCC(C)(C)O2 (stereo partly drawn) [14-EPI-7'-DEOXYRITTERAZINE B] and write its reported GI50.
Reply: 40

###

# Species on record: Homo sapiens
# Measurement Notes: In vitro cytotoxicity against Breast avg 1-3 types of human tumors following a 6 day exposure.
# Assay type: functional
# Test Context: 144 h, read-out: ED50 (the source's name)
Below, each of the compounds is paired with its reported EC50 value.
Answer with a number only, understood to be in nM.

INSERT INTO assay_data (compound, meas_value) VALUES
  ('CC1C2(O)C(C=C3C4CCC5Cc6nc7c(nc6C[C@]5(C)C4C[C@@H](O)[C@@]32C)CC2CCC3C4=CC5OC6(CCC(C)(C)O6)[C@@H](C)C5[C@@]4(C)[C@H](O)CC3[C@@]2(C)C7)O[C@]12CC[C@](C)(O)CO2 (stereo partly specified)', 0.036),
  ('C[C@@H]1[C@]2(O[C@H]3C=C4[C@@H]5CC[C@H]6Cc7nc8c(nc7C[C@]6(C)[C@H]5C[C@@H](O)[C@]4(C)[C@]31O)C[C@@H]1CC[C@H]3C4=C[C@@H]5O[C@]6(CC[C@](C)(O)CO6)C[C@]5(O)[C@@]4(C)[C@H](O)C[C@@H]3[C@@]1(C)C8)O[C@](C)(CO)C[C@H]2O [CEPHALOSTATIN 7]', 38),
  ('C[C@@H]1C2(OC3C=C4C5CCC6Cc7nc8c(nc7C[C@]6(C)C5C[C@@H](O)[C@]4(C)C31O)CC1CCC3C4=CCC5[C@H](C)[C@@]6(OC[C@]45[C@H](O)CC3[C@@]1(C)C8)OC(C)(C)C[C@H]6O)O[C@](C)(CO)C[C@H]2O (stereo partly specified)', 0.0011),
  ('COc1cccc2c1C(=O)c1c(O)c3c(c(O)c1C2=O)C[C@@](O)(C(=O)CO)C[C@@H]3O[C@H]1C[C@H](N)[C@H](O)[C@H](C)O1 [DOXORUBICIN]', 150),
  ('C[C@@H]1[C@@]2(CC[C@](C)(O)CO2)O[C@H]2C=C3[C@@H]4[C@@H](O)C[C@H]5Cc6nc7c(nc6C[C@]5(C)[C@H]4C[C@@H](O)[C@]3(C)[C@]21O)C[C@@H]1CC[C@H]2[C@H]3C[C@@H]4O[C@@]5(CCC(C)(C)O5)C[C@@H]4[C@@]3(C)[C@H](O)C[C@@H]2[C@@]1(C)C7 [RITTERAZINE B]', 0.0021);

Ask: Read the entry C[C@@H]1[C@@]2(CC[C@](C)(O)CO2)O[C@H]2C=C3[C@H]4CC[C@H]5Cc6nc7c(nc6C[C@]5(C)[C@H]4C[C@@H](O)[C@]3(C)[C@]21O)C[C@@H]1CC[C@H]2C3=C[C@@H]4O[C@]5(CC[C@@](C)(O)CO5)[C@@H](C)[C@]4(O)[C@@]3(C)[C@H](O)C[C@@H]2[C@@]1(C)C7 [RITTERAZINE K] and write its reported EC50.
Reply: 11

###

# Tested on: PC-3
# Measurement Notes: In vitro cytotoxicity against prostate PC-3 human tumors following a 2 day exposure.
# Assay type: functional
# Test Context: PC-3, 48 h
Measured Attribute: GI50 (nM)
Answer with a number only, understood to be in nM.

Worked cases, GI50 given:
INSERT INTO assay_data (molecule, measured_attribute, unit_tag, meas_value) VALUES
  ('C[C@@H]1[C@]2(O[C@H]3C=C4[C@@H]5CC[C@H]6Cc7nc8c(nc7C[C@]6(C)[C@H]5C[C@@H](O)[C@]4(C)[C@]31O)C[C@@H]1CC[C@H]3C4=C[C@@H]5O[C@]6(CC[C@](C)(O)CO6)C[C@]5(O)[C@@]4(C)[C@H](O)C[C@@H]3[C@@]1(C)C8)O[C@](C)(CO)C[C@H]2O', 'GI50', 'nM', 23),
  ('CC1C2(O)C(C=C3C4CCC5Cc6nc7c(nc6C[C@]5(C)C4C[C@@H](O)[C@@]32C)CC2CCC3C4=CC5OC6(CCC(C)(C)O6)[C@@H](C)C5[C@@]4(C)[C@H](O)CC3[C@@]2(C)C7)O[C@]12CC[C@](C)(O)CO2 (some centres undefined)', 'GI50', 'nM', 12);

Ask: Read the entry C[C@@H]1C2(OC3C=C4C5CCC6Cc7nc8c(nc7C[C@]6(C)C5C[C@@H](O)[C@]4(C)C31O)CC1CCC3C(CC(=O)[C@]45CO[C@@]6(OC(C)(C)C[C@H]6O)[C@@H](C)C4CCC35)[C@@]1(C)C8)O[C@](C)(CO)C[C@H]2O (some centres undefined) [DIHYDROCEPHALOSTATIN 1] and write its reported GI50.
Reply: 0.22

###

# Tested on: Panel NCI-60 (60 carcinoma cell lines)
# Measurement Notes: In vitro cytotoxicity against a subset of 60 cell lines (NCI-60) in human tumors following a 2 day exposure. Values in parentheses is the % cell lines affected.
# Type: functional
# Test Context: 48 h
Below, each of the molecules is paired with its reported GI50 value.
Answer with a number only, understood to be in µM.

Worked cases, GI50 given:
INSERT INTO assay_data (molecule, meas_value) VALUES
  ('C[C@@H]1C2(OC3C=C4C5CCC6Cc7nc8c(nc7C[C@]6(C)C5C[C@@H](O)[C@]4(C)C31O)CC1CCC3C4=CC5OC6(CCC(C)(C)O6)[C@@H](C)C5[C@@]4(C)[C@H](O)CC3[C@@]1(C)C8)O[C@](C)(CO)C[C@H]2O (some centres not stated)', 0.014),
  ('C[C@@H]1[C@]2(O[C@H]3C=C4[C@@H]5CC[C@H]6Cc7nc8c(nc7C[C@]6(C)[C@H]5C[C@@H](O)[C@]4(C)[C@]31O)C[C@@H]1CC[C@H]3C4=C[C@@H]5O[C@]6(CC[C@](C)(O)CO6)C[C@]5(O)[C@@]4(C)[C@H](O)C[C@@H]3[C@@]1(C)C8)O[C@](C)(CO)C[C@H]2O', 0.05),
  ('C[C@@H]1[C@]2(O[C@H]3C=C4[C@@H]5CC[C@H]6Cc7nc8c(nc7C[C@]6(C)[C@H]5C[C@@H](O)[C@]4(C)[C@]31O)C[C@@H]1CC[C@H]3C4=CC[C@@H]5[C@H](C)[C@@]6(OC[C@]45C(=O)C[C@@H]3[C@@]1(C)C8)OC(C)(C)C[C@H]6O)O[C@](C)(CO)C[C@H]2O', 0.0012);

Ask: Retrieve GI50 on Panel NCI-60 (60 carcinoma cell lines); query C[C@@H]1C2(OC3C=C4C5CCC6Cc7nc8c(nc7C[C@]6(C)C5C[C@@H](O)[C@]4(C)C31O)CC1CCC3C(CC(=O)[C@]45CO[C@@]6(OC(C)(C)C[C@H]6O)[C@@H](C)C4CCC35)[C@@]1(C)C8)O[C@](C)(CO)C[C@H]2O (some centres not stated) [DIHYDROCEPHALOSTATIN 1]
Reply: 0.0024

Ask: Retrieve GI50 on Panel NCI-60 (60 carcinoma cell lines); query "C[C@@H]1[C@@]2(CC[C@](C)(O)CO2)O[C@H]2C=C3[C@H]4CC[C@H]5Cc6nc7c(nc6C[C@]5(C)[C@H]4C[C@@H](O)[C@]3(C)[C@]21O)C[C@@H]1CC[C@H]2C3=C[C@@H]4O[C@]5(CC[C@@](C)(O)CO5)[C@@H](C)[C@]4(O)[C@@]3(C)[C@H](O)C[C@@H]2[C@@]1(C)C7"
Reply: 0.096
